- system: PIK3CB;PIK3CG;PIK3CD;PIK3CA (human) (UniProt P48736)
- protocol.notes: Enzyme Assay
measurement.type: IC50 (nM)

compound	readout.unit	recorded.number
COCc1cccc(-n2nc(C(=O)N3CCOCC3)c3c2-c2ccccc2S(=O)(=O)C3)c1	nM	997
CC(C)(C)OC(=O)N1CCCC(n2nc(C(=O)N3CCOCC3)c3c2-c2ccccc2S(=O)(=O)C3)CC1 (stereo not given)	nM	824
COc1ccc(-n2nc(C(=O)N3CCOCC3)c3c2-c2ccccc2S(=O)(=O)C3)cc1	nM	749
COCCN1CCC(n2nc(C(=O)N3CCOCC3)c3c2-c2ccccc2S(=O)(=O)C3)C1 (stereo not given)	nM	1480
Cc1nnc(-c2cccc(-n3nc(C(=O)N4CCOCC4)c4c3-c3ccccc3S(=O)(=O)C4)c2)o1	nM	1200
